Would you mind telling me the reported IC50 of each entry?
Target: Glutamate receptor ionotropic, AMPA (Rattus norvegicus, UniProt P19490+P19491+P19492+P19493)
Experiment: Concentration required for 50% inhibition of [3H]Glu binding to AMPA receptor in rat cortical slice preparation in the presence of 2.5 mM CaCl2
Answers are plain numbers, in nM.

>  <compound>
CCCCCCCCc1c(O)noc1CC(N)C(=O)O (centres undefined)

>  <unit.text>
nM

>  <IC50>
20

$$$$

# batch: return IC50 for each of the 3 compounds below
1. Cc1c(O)noc1CC(N)C(=O)O (centres undefined)
2. NC(Cc1onc(O)c1CCO)C(=O)O (centres undefined)
3. CCCCc1c(O)noc1CC(N)C(=O)O (centres undefined)

A.
180
140
180
